Values compiled from ChEMBL document CHEMBL3988442.

- System: Leishmania donovani
- PROCEDURE TEXT: Leishmania intramacrophage assay
- Format: functional, organism-based
- CONDITION INFO: Leishmania donovani
Below, each entry is listed with its recorded IC50.

Example entries and their recorded answers appear below.
Cc1sc2nc(C(F)(F)F)nc(N3CCCN(C)CC3)c2c1C    46.2 µM
FC1(F)CCN(Cc2cccnc2)CC12CCN(c1cnccn1)C2 (centres undefined)    > 50.1 µM
Cl.NC1CCc2nc(-c3cccnc3)nc(Nc3ccc(F)cc3)c2C1 (centres undefined)    8.3 µM

stdin: Please report the recorded IC50 for O=C(CO)N1CCC(F)(F)C2(CCN(c3ccccc3)C2)C1 (centres undefined) .
stdout: > 50.1 µM

stdin: Please report the recorded IC50 for OCCN1CCC(F)(F)C2(CCN(c3cnccn3)C2)C1 (centres undefined) .
stdout: > 50.1 µM

stdin: Please report the recorded IC50 for "Cc1nn(C)cc1-c1cc(C(F)(F)F)nc(NC2CCN(C)CC2)n1" .
stdout: > 50.1 µM

stdin: Please report the recorded IC50 for COc1cc(OC)cc(-c2cccc3c2OC(CN)C3)c1 (centres undefined) .
stdout: 18.3 µM

====

Below, each entry is listed with its recorded IC50.
- PROCEDURE TEXT: microbe, parasite or virus in culture
- CONDITION INFO: Mycobacterium tuberculosis, 96 h, read-out: pIC50 (converted)
Report the figure in µM without appending any unit label.

Example entries and their recorded answers appear below.
CCCNC(=O)CNc1cc(F)c(OC)c(F)c1    326
Cc1cc(S(=O)(=O)NC(CN)C2CC2)c(F)cc1F (configuration not stated)    18.9

For the next question, use this molecule.
stdin: Please report the recorded IC50 for COc1ccc(F)c(CN2CCCC3(CCN(C4CCOCC4)C3)C2)c1 (configuration not stated) .
stdout: 25.1

====

- MEASURED TARGET: Lysine--tRNA ligase (Plasmodium falciparum (isolate 3D7))
- Sequence (Q8IDJ8 whole entry): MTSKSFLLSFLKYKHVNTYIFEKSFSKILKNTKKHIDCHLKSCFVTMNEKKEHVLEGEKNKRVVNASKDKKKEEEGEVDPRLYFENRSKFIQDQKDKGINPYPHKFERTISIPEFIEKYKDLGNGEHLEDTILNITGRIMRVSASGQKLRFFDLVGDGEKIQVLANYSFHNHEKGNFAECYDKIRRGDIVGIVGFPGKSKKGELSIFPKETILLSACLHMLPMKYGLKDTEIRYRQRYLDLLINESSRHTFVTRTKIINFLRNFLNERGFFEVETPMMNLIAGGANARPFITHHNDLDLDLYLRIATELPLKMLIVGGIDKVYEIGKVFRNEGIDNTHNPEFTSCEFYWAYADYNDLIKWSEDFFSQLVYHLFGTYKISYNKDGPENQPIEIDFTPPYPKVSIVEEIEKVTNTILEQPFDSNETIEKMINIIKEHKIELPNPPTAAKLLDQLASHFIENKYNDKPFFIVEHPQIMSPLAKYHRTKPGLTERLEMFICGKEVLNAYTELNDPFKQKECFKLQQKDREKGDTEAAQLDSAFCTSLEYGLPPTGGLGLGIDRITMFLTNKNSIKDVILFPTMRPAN
- PROCEDURE TEXT: Pf-KRS-1 (Lysyl-RNA Synthetase-1, KRS-1, cytosolic KRS) from Plasmodium falciparum. Inhibitor assay, 384 well plate, luminescence read.
pIC50: −log10 of the molar value.
PROPERTY NAME: pIC50

COc1cccc(C2CC(=O)Nc3nc(N)sc32)c1OC (configuration not stated)    < 4.30
CSCCCN1CCCC(Cn2ccnc2)C1 (configuration not stated)    < 4.30
Cc1nnc(NCCC(=O)N(C)Cc2ccccc2)c(C#N)c1C    < 4.30
COCc1cc(N(CC(F)F)C2CC2)n2ncnc2n1    < 4.30

stdin: Please report the recorded pIC50 for COCCOc1ccc(NC(=O)N2CCCC2c2cccs2)cn1 (configuration not stated) .
stdout: < 4.30

stdin: Please report the recorded pIC50 for "Cc1cc(=O)n(C)cc1NC(=O)NCc1cccc(F)c1" .
stdout: < 4.30

stdin: Please report the recorded pIC50 for COCCn1cc(NC(=O)C(C)CCc2ccccc2F)ccc1=O (configuration not stated) .
stdout: < 4.30

====

- Tested on: Mycobacterium tuberculosis
- PROCEDURE TEXT: Cornell M. t heat shock assay
- Format: functional, organism-based
- CONDITION INFO: Mycobacterium tuberculosis
PROPERTY NAME: IC50 (µM)
Report the figure in µM without appending any unit label.

Example entries and their recorded answers appear below.
Oc1cc(C2CCCCN2Cc2cccs2)nc(-c2ccccn2)n1 (stereo unspecified)    17.3
Cn1ccnc1-c1nc(NC2CCCC2)ncc1-c1cccc(F)c1    40.3

For the next question, use this compound.
stdin: Please report the recorded IC50 for Cc1ccccc1CN1CCCC1c1cccc(Nc2nccs2)n1 (stereo unspecified) .
stdout: 1.93
